Data origin: the Immune Epitope Database (IEDB)

Target under test: HLA-B*08:02
Test description: IEDB peptide-MHC binding, purified MHC/direct/fluorescence; filed as Kd, often an IC50 or EC50 that approximates it; bounds were set here for any values at or beyond the usual limits of such assays
Run conditions: source organism: Burkholderia mallei ATCC 23344
Measurement kind: pKd
Give only the number. pKd is defined as minus log10 of concentration in molar units.

QUERY: Query: pKd; subject: `RLRRRRHPL`
RESULT: 5.93

* * *

Target under test: HLA-B*44:02
Test description: IEDB peptide-MHC binding, purified MHC/competitive/radioactivity; filed as Kd, often an IC50 or EC50 that approximates it; bounds were set here for any values at or beyond the usual limits of such assays
Run conditions: source organism: Dengue virus 2 Jamaica/1409/1983
Measurement kind: Kd (nM)
Use nM as the unit, but write only the number.

QEKGKSLLF	52.7
KEGTFHTMW	102
TEKDSPVNI	587

Proceed to the following item.
QUERY: Dear colleague, I am looking for the recorded Kd of the following sequence: `AECPNTNRAW`
RESULT: 35.6

* * *

The following sequences are listed with their measured Kd values.
Target under test: HLA-B*58:01
Test description: IEDB peptide-MHC binding, purified MHC/direct/fluorescence; filed as Kd, often an IC50 or EC50 that approximates it; bounds were set here for any values at or beyond the usual limits of such assays
Run conditions: source organism: Pseudomonas aeruginosa

Here is how some sequences turned out for Kd.
GEDDDMLPW	≥ 20 µM
SEYKAAGYL	≥ 20 µM

// next entry
QUERY: Which Kd is reported with HLA-B*58:01 for this entry: `TYYPQVVLG` ?
RESULT: 6.85 µM

* * *

Target under test: HLA-B*53:01
Test description: IEDB peptide-MHC binding, purified MHC/competitive/radioactivity; filed as Kd, often an IC50 or EC50 that approximates it; bounds were set here for any values at or beyond the usual limits of such assays
Run conditions: source organism: Mammarenavirus brazilense
Measurement kind: Kd (µM)
// return numeric value only (unit: µM, not printed)

QUERY: What value of Kd has been recorded for this entry: `APFMSDLQF`
RESULT: 0.0319

* * *

Target under test: HLA-A*26:01
Test description: IEDB peptide-MHC binding, purified MHC/competitive/fluorescence; filed as Kd, often an IC50 or EC50 that approximates it; bounds were set here for any values at or beyond the usual limits of such assays
Run conditions: source organism: Vibrio parahaemolyticus K5030
Measurement kind: Kd

QUERY: // returns reported Kd for input `AGGWVLWKV`
RESULT: ≥ 20 µM

* * *

Target under test: HLA-A*02:01
Test description: IEDB peptide-MHC binding, purified MHC/direct/fluorescence; filed as Kd, often an IC50 or EC50 that approximates it; bounds were set here for any values at or beyond the usual limits of such assays
Run conditions: source organism: Alkhumra hemorrhagic fever virus
Measurement kind: Kd

QUERY: Looking for the measured Kd of `WPWNAREDV` , can you help?
RESULT: ≥ 20 µM

* * *

Target under test: HLA-B*53:01
Test description: IEDB peptide-MHC binding, purified MHC/competitive/radioactivity; filed as Kd, often an IC50 or EC50 that approximates it; bounds were set here for any values at or beyond the usual limits of such assays
Run conditions: source organism: Vaccinia virus WR
Below, each of the sequences is paired with its reported Kd value.
Please reply with the bare figure in nM and do not write the unit itself.

Solved cases (2 shown):
KPESRPFDLI	18600
IPDELIDVL	458

QUERY: # query: Kd of entry `LPMIIGEPI`
RESULT: 5.6

QUERY: And what about the sequence `MPEKRNVVVV` ?
RESULT: 13200

QUERY: Also, `FPANINDKQI` please.
RESULT: 8.77

QUERY: Next sequence: `MPVETLFGSY`
RESULT: 2.28
